Hello, the source for this data is ChEMBL document CHEMBL4622928, in case you need it.

TARGET_SYSTEM: NAD-dependent protein deacetylase sirtuin-2 (Homo sapiens, UniProt Q8IXJ6)
Sequence (Q8IXJ6 whole entry): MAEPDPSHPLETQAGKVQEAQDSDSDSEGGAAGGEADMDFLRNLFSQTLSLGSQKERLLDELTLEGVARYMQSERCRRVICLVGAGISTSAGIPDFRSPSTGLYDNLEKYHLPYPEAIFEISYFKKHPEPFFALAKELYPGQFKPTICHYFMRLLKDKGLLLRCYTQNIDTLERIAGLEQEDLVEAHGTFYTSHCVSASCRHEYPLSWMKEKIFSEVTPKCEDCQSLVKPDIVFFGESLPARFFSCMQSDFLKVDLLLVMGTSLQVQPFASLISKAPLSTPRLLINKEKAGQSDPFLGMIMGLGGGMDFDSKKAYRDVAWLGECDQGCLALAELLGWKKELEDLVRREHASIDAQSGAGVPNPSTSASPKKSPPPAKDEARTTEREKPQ

MOLECULE: CN1CCN(c2ccc([N+](=O)[O-])c(N)c2)CC1
TARGET_SYSTEM: NAD-dependent protein deacetylase sirtuin-2 (Homo sapiens, UniProt Q8IXJ6)
IC50: > 200 µM

====

TARGET_SYSTEM: UniProt:Q8N6T7
PROTOCOL_SUMMARY: Binding affinity to SIRT6 (unknown origin) by surface plasmon resonance assay

MOLECULE: CN1CCN(c2ccc([N+](=O)[O-])c(N)c2)CC1
Kd / µM: 9.76

====

TARGET_SYSTEM: Polyamine deacetylase HDAC10 (Homo sapiens, UniProt Q969S8)
Sequence (Q969S8 whole entry): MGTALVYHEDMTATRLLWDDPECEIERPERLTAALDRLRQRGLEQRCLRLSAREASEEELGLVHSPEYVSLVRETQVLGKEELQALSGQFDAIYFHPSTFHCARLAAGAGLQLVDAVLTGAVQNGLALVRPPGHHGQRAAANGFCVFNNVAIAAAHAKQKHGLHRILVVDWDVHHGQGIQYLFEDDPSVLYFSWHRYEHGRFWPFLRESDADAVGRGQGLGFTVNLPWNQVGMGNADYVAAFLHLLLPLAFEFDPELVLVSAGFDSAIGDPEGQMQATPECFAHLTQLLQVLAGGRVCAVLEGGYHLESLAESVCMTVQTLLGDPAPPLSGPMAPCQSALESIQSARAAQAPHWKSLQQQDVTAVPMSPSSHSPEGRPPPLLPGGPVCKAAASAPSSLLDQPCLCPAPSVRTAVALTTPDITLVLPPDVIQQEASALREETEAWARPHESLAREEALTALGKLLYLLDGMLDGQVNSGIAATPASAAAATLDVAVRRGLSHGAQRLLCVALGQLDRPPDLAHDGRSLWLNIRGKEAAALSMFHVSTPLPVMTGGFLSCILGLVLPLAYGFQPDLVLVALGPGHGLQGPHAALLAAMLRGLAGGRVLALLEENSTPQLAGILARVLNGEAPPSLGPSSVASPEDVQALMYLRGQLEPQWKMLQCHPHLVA
pIC50: −log10 of the molar value.
MEASURED_PARAMETER: pIC50

MOLECULE: CN1CCN(c2ccc([N+](=O)[O-])c(N)c2)CC1
MEASURED_PARAMETER: pIC50
RESULT: < 3.70

====

TARGET_SYSTEM: Histone deacetylase 9 (Homo sapiens, UniProt Q9UKV0)
Sequence (Q9UKV0 whole entry): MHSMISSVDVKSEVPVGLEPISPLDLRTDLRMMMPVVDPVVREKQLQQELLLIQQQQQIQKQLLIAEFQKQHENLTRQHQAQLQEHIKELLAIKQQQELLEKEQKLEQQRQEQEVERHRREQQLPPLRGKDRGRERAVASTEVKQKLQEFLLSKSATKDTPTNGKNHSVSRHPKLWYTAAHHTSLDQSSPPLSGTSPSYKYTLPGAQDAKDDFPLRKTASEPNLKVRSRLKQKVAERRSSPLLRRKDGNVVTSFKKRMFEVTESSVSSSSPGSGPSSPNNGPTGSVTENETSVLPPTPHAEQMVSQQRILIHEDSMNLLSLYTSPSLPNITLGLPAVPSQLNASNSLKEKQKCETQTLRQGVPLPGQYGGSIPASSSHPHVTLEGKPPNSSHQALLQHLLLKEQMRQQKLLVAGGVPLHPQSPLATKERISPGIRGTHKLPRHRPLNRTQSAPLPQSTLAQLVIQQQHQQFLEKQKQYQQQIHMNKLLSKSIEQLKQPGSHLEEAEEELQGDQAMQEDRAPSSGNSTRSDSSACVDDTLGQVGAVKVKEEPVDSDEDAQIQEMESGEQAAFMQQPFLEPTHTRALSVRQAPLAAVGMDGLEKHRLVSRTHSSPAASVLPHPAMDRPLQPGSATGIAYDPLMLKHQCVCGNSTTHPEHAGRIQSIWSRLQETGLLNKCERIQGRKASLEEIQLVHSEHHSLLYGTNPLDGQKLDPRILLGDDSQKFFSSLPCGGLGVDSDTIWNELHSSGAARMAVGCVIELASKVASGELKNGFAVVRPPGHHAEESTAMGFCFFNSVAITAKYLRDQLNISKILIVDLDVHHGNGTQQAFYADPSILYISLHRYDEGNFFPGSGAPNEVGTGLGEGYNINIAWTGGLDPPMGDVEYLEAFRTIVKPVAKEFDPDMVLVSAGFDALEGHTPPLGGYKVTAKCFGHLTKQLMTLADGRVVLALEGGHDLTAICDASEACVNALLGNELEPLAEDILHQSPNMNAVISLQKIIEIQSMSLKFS

MOLECULE: CN1CCN(c2ccc([N+](=O)[O-])c(N)c2)CC1
IC50: > 200 µM

====

Each entry below carries its measured IC50, system: NAD-dependent protein deacylase sirtuin-6 (Homo sapiens, UniProt Q8N6T7).
Sequence (Q8N6T7 whole entry): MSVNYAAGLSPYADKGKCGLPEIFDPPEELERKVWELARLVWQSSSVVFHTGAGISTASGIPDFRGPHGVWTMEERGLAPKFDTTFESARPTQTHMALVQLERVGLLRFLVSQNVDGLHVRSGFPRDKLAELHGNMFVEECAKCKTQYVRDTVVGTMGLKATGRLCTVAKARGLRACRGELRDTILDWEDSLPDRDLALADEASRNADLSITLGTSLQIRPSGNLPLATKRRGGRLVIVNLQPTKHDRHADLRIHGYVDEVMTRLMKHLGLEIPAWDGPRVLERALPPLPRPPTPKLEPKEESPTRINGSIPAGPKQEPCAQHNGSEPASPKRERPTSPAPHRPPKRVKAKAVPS

MOLECULE: CN1CCN(c2ccc([N+](=O)[O-])c(N)c2)CC1
IC50 / µM: 4.93

MOLECULE: CN1CCN(c2ccc([N+](=O)[O-])c(C(=O)Nc3cccc4ccccc34)c2)CC1
IC50 / µM: 16.8

MOLECULE: COC(=O)c1cc(N2CCN(C)CC2)ccc1[N+](=O)[O-]
IC50 / µM: 9.46

MOLECULE: CN1CCN(c2ccc([N+](=O)[O-])c(C(F)(F)F)c2)CC1
IC50 / µM: 21.1

MOLECULE: CN1CCN(c2ccc([N+](=O)[O-])cc2)CC1
IC50 / µM: 21.9

MOLECULE: CN1CCN(c2ccc([N+](=O)[O-])c(O)c2)CC1
IC50 / µM: 11

MOLECULE: COc1cc(N2CCN(C)CC2)ccc1[N+](=O)[O-]
IC50 / µM: 9.09

====

TARGET_SYSTEM: NAD-dependent protein deacetylase sirtuin-1 (Homo sapiens, UniProt Q96EB6)
Sequence (Q96EB6 whole entry): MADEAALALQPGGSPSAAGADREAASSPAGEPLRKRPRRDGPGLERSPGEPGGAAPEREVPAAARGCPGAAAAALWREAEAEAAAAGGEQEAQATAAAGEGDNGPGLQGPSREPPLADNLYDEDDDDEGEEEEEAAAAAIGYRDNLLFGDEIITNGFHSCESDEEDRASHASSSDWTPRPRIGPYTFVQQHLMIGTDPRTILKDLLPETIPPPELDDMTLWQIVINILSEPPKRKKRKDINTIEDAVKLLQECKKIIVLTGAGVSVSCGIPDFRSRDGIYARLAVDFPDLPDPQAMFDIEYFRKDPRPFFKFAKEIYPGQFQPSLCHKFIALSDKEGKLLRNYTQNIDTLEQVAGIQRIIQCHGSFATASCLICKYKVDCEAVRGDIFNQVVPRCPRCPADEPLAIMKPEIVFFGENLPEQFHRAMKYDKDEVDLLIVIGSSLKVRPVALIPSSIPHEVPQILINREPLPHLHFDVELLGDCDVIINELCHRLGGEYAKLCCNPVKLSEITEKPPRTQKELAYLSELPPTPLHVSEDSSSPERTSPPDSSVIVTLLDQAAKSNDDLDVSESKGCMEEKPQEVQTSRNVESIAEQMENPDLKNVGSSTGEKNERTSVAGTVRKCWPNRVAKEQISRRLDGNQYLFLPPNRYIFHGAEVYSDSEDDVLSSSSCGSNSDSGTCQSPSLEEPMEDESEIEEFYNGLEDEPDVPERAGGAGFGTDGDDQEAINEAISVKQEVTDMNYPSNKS

MOLECULE: CN1CCN(c2ccc([N+](=O)[O-])c(N)c2)CC1
IC50: > 200 µM

====

TARGET_SYSTEM: Histone deacetylase 1 (Homo sapiens)
Sequence (Q13547 whole entry): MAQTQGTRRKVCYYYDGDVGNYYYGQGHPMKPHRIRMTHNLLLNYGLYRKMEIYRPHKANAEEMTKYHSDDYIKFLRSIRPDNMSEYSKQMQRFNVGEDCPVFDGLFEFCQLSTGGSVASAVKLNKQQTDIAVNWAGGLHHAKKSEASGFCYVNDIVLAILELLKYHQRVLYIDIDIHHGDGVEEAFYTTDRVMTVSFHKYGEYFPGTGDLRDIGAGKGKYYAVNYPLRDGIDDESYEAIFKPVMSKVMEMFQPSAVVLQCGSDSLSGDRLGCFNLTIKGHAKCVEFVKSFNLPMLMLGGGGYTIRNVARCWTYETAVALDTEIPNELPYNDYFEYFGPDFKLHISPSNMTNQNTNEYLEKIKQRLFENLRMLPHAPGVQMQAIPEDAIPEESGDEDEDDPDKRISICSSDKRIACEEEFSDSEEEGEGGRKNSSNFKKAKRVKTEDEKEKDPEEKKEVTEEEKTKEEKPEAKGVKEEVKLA
PROTOCOL_SUMMARY: Inhibition of HDAC1 (unknown origin)
MEASURED_PARAMETER: IC50

MOLECULE: CN1CCN(c2ccc([N+](=O)[O-])c(N)c2)CC1
RESULT: > 200 µM
